Experiment: Intrinsic clearance in mouse liver microsomes after 1 hr by LC-MS/MS analysis
Format: ADME, Microsome
Conditions: read-out: CLH
Below: a set of entries, each annotated with reported CLint scaled.
Enter your answer as a number in mL/min/kg; do not include the unit.

Solved entries:
test_smiles=CC(C)n1ncnc1-c1cn2c(n1)-c1ccc(-c3cn[nH]c3)cc1OCC2 recorded_result=550
test_smiles=Cc1nc(-c2cn3c(n2)-c2ccc(-c4cnn(C)c4)cc2OCC3)n(C(C)C)n1 recorded_result=82
test_smiles=Cc1nc(-c2cn3c(n2)-c2ccc(-c4cnn(CCO)c4)cc2OCC3)n(C)n1 recorded_result=100
test_smiles=Cc1nc(-c2cn3c(n2)-c2ccc(-c4cnn(C(C)(C)C(N)=O)c4)cc2OCC3)n(C(C)C)n1 recorded_result=41.1
test_smiles=Cc1nc(-c2cn3c(n2)-c2ccc(-c4cnn(CCN5CCOCC5)c4)cc2OCC3)n(C(C)C)n1 recorded_result=89.4
test_smiles=Cc1nc(-c2cn3c(n2)-c2ccc(-c4cnn(C5CN(CCO)C5)c4)cc2OCC3)n(C(C)C)n1 recorded_result=58

Which measured CLint scaled value corresponds to OCCn1cc(-c2ccc3c(c2)OCCn2cc(-c4ncnn4CC(F)(F)F)nc2-3)cn1 ?
28

Given the entry Cc1nc(-c2cn3c(n2)-c2ccc(-c4cnn(CCO)c4)cc2OCC3)n(C(C)C)n1 , report its measured CLint scaled.
68.1

Given the entry Cc1nc(-c2cn3c(n2)-c2ccc(-c4cnn(C5CN(C(=O)[C@H](C)O)C5)c4)cc2OCC3)n(C(C)C)n1 , report its measured CLint scaled.
23

May I ask what CLint scaled has been recorded for CC(C)n1ncnc1-c1cn2c(n1)-c1ccc(-c3cnn(CCO)c3)cc1OCC2 ?
42.9

For the compound shown here, CC(C)n1ncnc1-c1cn2c(n1)-c1ccc(-c3cnn(CC(C)(C)O)c3)cc1OCC2 , give the reported CLint scaled.
44.3

The reported numbers originate from ChEMBL document CHEMBL2384988.
